Experiment: melting temperature; fluorescence melt of hairpins on a sequencing array, two-state fit, raised by 9.35 °C to match UV melts
Conditions: sodium 0.088 M
Listed sequences paired with reported Tm
Supply the numeric figure in °C, leaving out any unit text.

Residues: GTGATTGCGAAAGCACAC (((..(((....))))))
Observed result: 38.1
//
Residues: GTCATCCGAAAGGAGGAC (((.(((....))).)))
Observed result: 58.6
//
Residues: GATCATCCCATGATC ((((((...))))))
Observed result: 50.4
//
Residues: GCTTCGCGAAAGCAATGC ((.(.((....)).).))
Observed result: 33.2
//
Residues: GATCATTCACATGATC ((((((....))))))
Observed result: 46.6
//
Residues: GATCATTTGGATGATC ((((((....))))))
Observed result: 48.5
//
Residues: GATCTGGGGACAGATC ((((((....))))))
Observed result: 54.3
//
Residues: GTCCTGCGAAAGCAGAC (((.(((....))))))
Observed result: 47.4

stdin: Report Tm, nothing else, for this sequence: GGAGTTGGAAACAGCTTC (.((.((....)).)).)
stdout: 37.1

stdin: Report Tm, nothing else, for this sequence: GCGCTAACGAAAGTTCGC (((..(((....))))))
stdout: 45.4

stdin: Report Tm, nothing else, for this sequence: GGTGTCGGAAACGATGCC ((..(((....)))..))
stdout: 49.4

stdin: Report Tm, nothing else, for this sequence: GATCTCCTGGAGATC ((((((...))))))
stdout: 53.2

stdin: Report Tm, nothing else, for this sequence: GTTTGACGAAAGTCTAAC (((.(((....))).)))
stdout: 47.7

stdin: Report Tm, nothing else, for this sequence: GATCAGCTACTGATC ((((((...))))))
stdout: 49.1

stdin: Report Tm, nothing else, for this sequence: GGTCCTGGAAACAGGGCC ((.((((....)))).))
stdout: 60.8

stdin: Report Tm, nothing else, for this sequence: GAGCCACGAAAGTGCTC (((.(((....))))))
stdout: 54.2

stdin: Report Tm, nothing else, for this sequence: GTGTGACGAAAGTCGCAC (((.(((....))).)))
stdout: 65.9

stdin: Report Tm, nothing else, for this sequence: GATCCGGATGCGGATC ((((((....))))))
stdout: 58.5

stdin: Report Tm, nothing else, for this sequence: GCTACCGAAAGGTTAGC ((((((....))).)))
stdout: 52.7

stdin: Report Tm, nothing else, for this sequence: GGTATCGGAAACAATACC (((((.(....).)))))
stdout: 31.6
